Assay: Plasma pharmacokinetics of bortezomib and docetaxel given in combination
Format: in vivo, patients
Details: human, plasma, intravenous, 1.5 mg, bortezomib 1.5 mg m^−2 (n=6), day 11; read-out: Vz, mean (%CV)
assay readout: Vd (L)

>>> value("CC(C)C[C@H](NC(=O)[C@H](Cc1ccccc1)NC(=O)c1cnccn1)B(O)O [Bortezomib]")
538

* * *

Experiment: Plasma pharmacokinetics of bortezomib and docetaxel given in combination
Format: in vivo, patients
Details: human, plasma, intravenous, 75 mg, docetaxel 75 mg m^−2 (n=7), day 1, with bortezomib; read-out: CL, mean (%CV) (converted)
assay readout: clearance

>>> value("CC(=O)O[C@@]12CO[C@@H]1C[C@H](O)[C@@]1(C)C(=O)[C@H](O)C3=C(C)[C@@H](OC(=O)[C@H](O)[C@@H](NC(=O)OC(C)(C)C)c4ccccc4)C[C@@](O)([C@@H](OC(=O)c4ccccc4)[C@H]21)C3(C)C")
"1420 mL/min"

* * *

Assay: Plasma pharmacokinetics of bortezomib and docetaxel given in combination
Format: in vivo, patients
Details: human, plasma, intravenous, 1.5 mg, bortezomib 1.5 mg m^−2 (n=6), day 11; read-out: AUC0–t, mean (%CV)
assay readout: AUC(0-t)

>>> value("CC(C)C[C@H](NC(=O)[C@H](Cc1ccccc1)NC(=O)c1cnccn1)B(O)O")
"103 ng·h/mL"

* * *

Assay: Plasma pharmacokinetics of bortezomib and docetaxel given in combination
Type: in vivo, patients
Details: human, plasma, intravenous, 75 mg, docetaxel 75 mg m^−2 (n=7), day 1, with bortezomib; read-out: AUC0–t, mean (%CV)
assay readout: AUC(0-t) (µg·h/mL)

>>> value("CC(=O)O[C@@]12CO[C@@H]1C[C@H](O)[C@@]1(C)C(=O)[C@H](O)C3=C(C)[C@@H](OC(=O)[C@H](O)[C@@H](NC(=O)OC(C)(C)C)c4ccccc4)C[C@@](O)([C@@H](OC(=O)c4ccccc4)[C@H]21)C3(C)C")
1.7

* * *

Test: Plasma pharmacokinetics of bortezomib and docetaxel given in combination
Format: in vivo, patients
Settings: human, plasma, intravenous, 1.5 mg, bortezomib 1.5 mg m^−2, day 1, patients with measurable plasma concentrations at 24 h post-dose (n=2); read-out: T½,z 24-h, mean (converted)
assay readout: half-life

>>> value("CC(C)C[C@H](NC(=O)[C@H](Cc1ccccc1)NC(=O)c1cnccn1)B(O)O [Bortezomib]")
"17.8 h"

* * *

Experiment: Plasma pharmacokinetics of bortezomib and docetaxel given in combination
Format: in vivo, patients
Conditions: human, plasma, intravenous, 75 mg, docetaxel 75 mg m^−2 (n=7), day 1, with bortezomib; read-out: Vss, mean (%CV)
assay readout: Vd (L)

>>> value("CC(=O)O[C@@]12CO[C@@H]1C[C@H](O)[C@@]1(C)C(=O)[C@H](O)C3=C(C)[C@@H](OC(=O)[C@H](O)[C@@H](NC(=O)OC(C)(C)C)c4ccccc4)C[C@@](O)([C@@H](OC(=O)c4ccccc4)[C@H]21)C3(C)C")
180

* * *

Assay: Plasma pharmacokinetics of bortezomib and docetaxel given in combination
Type: in vivo, patients
Settings: human, plasma, intravenous, 100 mg, docetaxel 100 mg m^−2 (n=6), day 1, with bortezomib; read-out: Vz, mean (%CV)
assay readout: Vd (L)

>>> value("CC(=O)O[C@@]12CO[C@@H]1C[C@H](O)[C@@]1(C)C(=O)[C@H](O)C3=C(C)[C@@H](OC(=O)[C@H](O)[C@@H](NC(=O)OC(C)(C)C)c4ccccc4)C[C@@](O)([C@@H](OC(=O)c4ccccc4)[C@H]21)C3(C)C [Docetaxel]")
1510
